MIC values recorded for Proteus mirabilis ATCC 12453
Numbers only, in µg/mL.

INSERT INTO results (structure_smiles, number) VALUES
  ('O=C(N/N=C/c1ccccc1[N+](=O)[O-])c1ccc(O)cc1O', 1000);

Next molecule, please.
Inquiry: Please give the measured MIC for this molecule: `CCCc1ccc(/C=N/NC(=O)c2ccc(O)cc2O)cc1`
Reply text: 1000

====

- System: Proteus mirabilis ATCC 12453
Kindly state MIC for each of the entries shown.
Answers are plain numbers, in µg/mL.

INSERT INTO measurements (molecule, number) VALUES
  ('Cc1cccc(/C=N/NC(=O)c2ccc(O)cc2O)c1 [Compound 2]', 1000);

Now turn to the next molecule.
Inquiry: # MIC lookup, item O=C(N/N=C/c1cc(I)cc(I)c1O)c1ccc(O)cc1O [Compound 18]
Reply text: 500

====

- Tested on: Klebsiella pneumoniae ATCC 13883
- procedure_summary: Broth microdilution MIC/MBC
- Assay type: cell-based
- assay_conditions: ATCC13883
quantity_name: MBC

INSERT INTO measurements (compound, target_entity, quantity_name, result) VALUES
  ('O=C(N/N=C/c1cc(Br)c(O)c(Br)c1)c1ccc(O)cc1O [Compound 17]', 'Klebsiella pneumoniae ATCC 13883', 'MBC', '> 1000 µg/mL'),
  ('O=C(N/N=C/c1ccccc1[N+](=O)[O-])c1ccc(O)cc1O [Compound 19]', 'Klebsiella pneumoniae ATCC 13883', 'MBC', '> 1000 µg/mL'),
  ('O=C1CN(/N=C/c2ccc([N+](=O)[O-])o2)C(=O)N1 [NIT, nitrofurantoin, reference compound]', 'Klebsiella pneumoniae ATCC 13883', 'MBC', '31.2 µg/mL'),
  ('O=C(N/N=C/c1cc(I)cc(I)c1O)c1ccc(O)cc1O [Compound 18]', 'Klebsiella pneumoniae ATCC 13883', 'MBC', '> 1000 µg/mL'),
  ('CCCc1ccc(/C=N/NC(=O)c2ccc(O)cc2O)cc1 [Compound 13]', 'Klebsiella pneumoniae ATCC 13883', 'MBC', '> 1000 µg/mL');

Now take the following compound into account.
Inquiry: Give the reported MBC for Cc1cccc(/C=N/NC(=O)c2ccc(O)cc2O)c1 [Compound 2] (system: Klebsiella pneumoniae ATCC 13883).
Reply text: > 1000 µg/mL

====

- Test system: Candida albicans ATCC 2091
- procedure_summary: Broth microdilution MIC/MFC
- Format: cell-based
- assay_conditions: ATCC2091, read-out: MIC
Assign MIC to each entry below.
One number for each entry, in µg/mL.

Provide reported MIC for each item, in the same order as listed.
1. O=C(N/N=C/c1ccccc1Br)c1ccc(O)cc1O
2. CCCOc1ccc(/C=N/NC(=O)c2ccc(O)cc2O)cc1
3. O=C(N/N=C/c1cc(Br)c(O)c(Br)c1)c1ccc(O)cc1O
4. O=C(N/N=C/c1ccccc1F)c1ccc(O)cc1O
5. CCOc1ccc(/C=N/NC(=O)c2ccc(O)cc2O)cc1

Reply text:
1. 1000
2. 500
3. 1000
4. 1000
5. 500

====

quantity_name: melting point (°C)
Give bare numbers, in °C.

Example molecules with recorded melting point:
INSERT INTO measurements (structure_smiles, quantity_name, number) VALUES
  ('COc1cc(/C=N/NC(=O)c2ccc(O)cc2O)cc(I)c1O', 'melting point', 255),
  ('CCOc1cc(/C=N/NC(=O)c2ccc(O)cc2O)ccc1OC', 'melting point', 230),
  ('O=C(N/N=C/c1cc(Br)c(O)c(Br)c1)c1ccc(O)cc1O', 'melting point', 260),
  ('Cc1ccc(/C=N/NC(=O)c2ccc(O)cc2O)cc1', 'melting point', 248);

Please give melting point for each item listed below.
1. CCCc1ccc(/C=N/NC(=O)c2ccc(O)cc2O)cc1
2. CCCOc1ccc(/C=N/NC(=O)c2ccc(O)cc2O)cc1
3. CCOc1ccc(/C=N/NC(=O)c2ccc(O)cc2O)cc1
4. Cc1ccccc1/C=N/NC(=O)c1ccc(O)cc1O

Reply text:
1: 197; 2: 251; 3: 248; 4: 250

List melting point for every entry below, keeping the order given.
1. O=C(N/N=C/c1cc(I)cc(I)c1O)c1ccc(O)cc1O
2. COc1ccc(/C=N/NC(=O)c2ccc(O)cc2O)cc1Cl

Reply text:
220
256

====

- System: Candida albicans ATCC 2091
- procedure_summary: Broth microdilution MIC/MFC
- Type: cell-based
- Source text: In vitro antimicrobial activity assays - Methodology […]
Give MFC/MIC for every item shown.

Check out these entries, answers already filled in.
INSERT INTO results (structure_smiles, result) VALUES
  ('O=C(N/N=C/c1ccc([N+](=O)[O-])cc1)c1ccc(O)cc1O', '> 1'),
  ('O=C(N/N=C/c1ccccc1[N+](=O)[O-])c1ccc(O)cc1O', '> 2'),
  ('COc1cc(/C=N/NC(=O)c2ccc(O)cc2O)cc(I)c1O', '> 4');

Consider the additional compound presented here.
Inquiry: Which value of MFC/MIC has been reported for `O=C(N/N=C/c1cc(I)cc(I)c1O)c1ccc(O)cc1O` in the records?
Reply text: > 2

====

Exercise: state measured MIC for each of the molecules provided.
- System: Enterococcus faecalis ATCC 29212
- procedure_summary: Broth microdilution MIC/MBC
- Type: cell-based
- assay_conditions: ATCC29212, read-out: MIC
One number for each entry, in µg/mL.

Some solved entries appear below for comparison.
INSERT INTO results (molecule, quantity_name, u, number) VALUES
  ('COc1ccc(/C=N/NC(=O)c2ccc(O)cc2O)cc1Cl [Compound 9]', 'MIC', 'µg/mL', 125),
  ('O=C(N/N=C/c1ccccc1F)c1ccc(O)cc1O [Compound 24]', 'MIC', 'µg/mL', 1000),
  ('CCOc1ccc(/C=N/NC(=O)c2ccc(O)cc2O)cc1 [Compound 5]', 'MIC', 'µg/mL', 1000),
  ('Cc1cccc(/C=N/NC(=O)c2ccc(O)cc2O)c1 [Compound 2]', 'MIC', 'µg/mL', 500);

Alright, here's another molecule for you.
Inquiry: For the record O=C(N/N=C/c1cc(I)cc(I)c1O)c1ccc(O)cc1O [Compound 18] , what value of MIC is listed for Enterococcus faecalis ATCC 29212?
Reply text: 3.91

====

- Test system: Staphylococcus epidermidis ATCC 12228
- procedure_summary: Broth microdilution MIC/MBC
- Format: cell-based
quantity_name: MBC/MIC

Worked examples follow.
INSERT INTO assay_data (structure_smiles, result) VALUES
  ('O=C(N/N=C/c1ccccc1Br)c1ccc(O)cc1O', '> 2'),
  ('COc1ccc(/C=N/NC(=O)c2ccc(O)cc2O)cc1Cl', 2),
  ('O=C(N/N=C/c1ccc([N+](=O)[O-])cc1)c1ccc(O)cc1O', '> 2');

Batch request: MBC/MIC per item, same order as input.
1. COc1cc(/C=N/NC(=O)c2ccc(O)cc2O)cc(I)c1O
2. O=C(N/N=C/c1ccccc1Cl)c1ccc(O)cc1O
3. Cc1cccc(/C=N/NC(=O)c2ccc(O)cc2O)c1
4. COc1ccc(/C=N/NC(=O)c2ccc(O)cc2O)cc1Br
5. COc1ccc(/C=N/NC(=O)c2ccc(O)cc2O)c(Br)c1O
6. O=C(N/N=C/c1cc(Br)c(O)c(Br)c1)c1ccc(O)cc1O
7. O=C(N/N=C/c1ccccc1[N+](=O)[O-])c1ccc(O)cc1O

Reply text:
> 1
> 1
2
> 1
> 1
> 8
> 2

====

Assign MIC to each entry below.
- System: Enterococcus faecalis ATCC 29212
- procedure_summary: Broth microdilution MIC/MBC
- Format: cell-based
- assay_conditions: ATCC29212, read-out: MIC
Give bare numbers, in µg/mL.

Example results:
INSERT INTO results (molecule, u, number) VALUES
  ('CCCc1ccc(/C=N/NC(=O)c2ccc(O)cc2O)cc1 [Compound 13]', 'µg/mL', 1000),
  ('O=C(N/N=C/c1ccccc1[N+](=O)[O-])c1ccc(O)cc1O [Compound 19]', 'µg/mL', 500),
  ('O=C(N/N=C/c1ccc([N+](=O)[O-])cc1)c1ccc(O)cc1O [Compound 21]', 'µg/mL', 500);

Please supply MIC for each of the following items, keeping them in order.
1. COc1cc(/C=N/NC(=O)c2ccc(O)cc2O)cc(I)c1O [Compound 16]
2. Cc1ccccc1/C=N/NC(=O)c1ccc(O)cc1O [Compound 1]
3. O=C(N/N=C/c1ccc(O)c(Br)c1)c1ccc(O)cc1O [Compound 11]

Reply text:
1000
1000
500

Hi team, please reply with MIC for each item in this list.
1. O=C(N/N=C/c1cc(Br)c(O)c(Br)c1)c1ccc(O)cc1O [Compound 17]
2. COc1ccc(/C=N/NC(=O)c2ccc(O)cc2O)cc1Br [Compound 10]

Reply text:
1. 500
2. 250
